protocol: Verification pharmacokinetic experiment in rats, SPC 60 g crude drug/kg by gavage, UFLC-MS/MS, DAS 2.0
Type: in vivo, rat
recorded conditions: rat, plasma, po, 0.22 mg/kg, statistical moment parameters, DAS 2.0; rats p.o. SPC 60 g crude drug/kg; Mean, 5 rats; read-out: AUC(0-∞)
Method: To validate the accuracy of PBPK models in predicting the pharmacokinetics of SPC constituents at different oral doses, the pharmacokinetic behavior of these four constituents from SPC in rats were analyzed by UFLC-MS/MS. The parameters were calculated using Drug and Statistics Software version 2.0, and then these validated values (Val.) were used to check the accuracy of the Calc. values and evaluated by FE. […]
readout: AUC(0-inf)

compound structure: COc1ccc(-c2coc3c(OC)c(O)ccc3c2=O)cc1
recorded measurement: 15.5 ng·h/mL
